- TESTED_TARGET: SpCas9 (Streptococcus pyogenes serotype M1, UniProt Q99ZW2)
- Sequence (Q99ZW2 whole entry): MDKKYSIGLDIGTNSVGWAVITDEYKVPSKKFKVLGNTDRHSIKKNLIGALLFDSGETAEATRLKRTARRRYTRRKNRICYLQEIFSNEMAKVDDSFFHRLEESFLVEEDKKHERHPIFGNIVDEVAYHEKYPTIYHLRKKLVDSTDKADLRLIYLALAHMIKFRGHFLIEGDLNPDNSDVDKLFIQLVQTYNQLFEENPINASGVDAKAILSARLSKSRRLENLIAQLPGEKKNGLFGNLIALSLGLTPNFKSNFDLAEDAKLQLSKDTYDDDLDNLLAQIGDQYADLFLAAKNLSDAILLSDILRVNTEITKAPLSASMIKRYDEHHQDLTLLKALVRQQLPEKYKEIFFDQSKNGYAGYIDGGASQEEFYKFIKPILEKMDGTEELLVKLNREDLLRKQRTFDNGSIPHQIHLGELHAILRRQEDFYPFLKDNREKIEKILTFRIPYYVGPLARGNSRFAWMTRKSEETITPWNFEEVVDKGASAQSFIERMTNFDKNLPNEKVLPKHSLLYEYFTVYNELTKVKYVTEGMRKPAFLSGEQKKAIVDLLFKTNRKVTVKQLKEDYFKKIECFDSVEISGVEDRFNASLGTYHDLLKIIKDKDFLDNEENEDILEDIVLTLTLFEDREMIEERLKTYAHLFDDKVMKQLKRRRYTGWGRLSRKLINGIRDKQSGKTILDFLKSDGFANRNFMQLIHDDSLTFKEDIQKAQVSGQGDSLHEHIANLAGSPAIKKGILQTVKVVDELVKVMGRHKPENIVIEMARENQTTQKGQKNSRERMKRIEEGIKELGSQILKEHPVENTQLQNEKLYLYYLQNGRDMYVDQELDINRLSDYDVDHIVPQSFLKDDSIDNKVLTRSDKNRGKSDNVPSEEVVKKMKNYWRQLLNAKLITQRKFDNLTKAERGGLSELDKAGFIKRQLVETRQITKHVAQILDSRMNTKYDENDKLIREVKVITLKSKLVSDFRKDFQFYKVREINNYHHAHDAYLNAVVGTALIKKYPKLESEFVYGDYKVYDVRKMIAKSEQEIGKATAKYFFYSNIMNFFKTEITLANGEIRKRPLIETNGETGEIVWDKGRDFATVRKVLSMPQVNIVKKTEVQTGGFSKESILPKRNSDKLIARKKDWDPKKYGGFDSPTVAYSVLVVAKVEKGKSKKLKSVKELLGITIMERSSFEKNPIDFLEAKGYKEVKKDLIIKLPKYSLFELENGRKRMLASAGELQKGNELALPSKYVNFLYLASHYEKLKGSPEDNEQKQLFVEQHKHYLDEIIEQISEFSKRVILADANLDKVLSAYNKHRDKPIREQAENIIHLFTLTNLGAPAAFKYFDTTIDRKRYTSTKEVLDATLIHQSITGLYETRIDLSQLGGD
- ASSAY: eGFP disruption assay, SpCas9, U2OS.eGFP.PEST cells
- Assay type: cell-based
- TEST_SETTINGS: replicate 1, raw readout
MEASURED_PARAMETER: SpCas9 eGFP disruption Rep1

| MOLECULE | MEASURED_PARAMETER | RESULT_NUMBER |
| --- | --- | --- |
| Cc1ccc(-c2nn3c(-c4cccnc4)nnc3s2)cc1 [Compound D727-0047] | SpCas9 eGFP disruption Rep1 | 58.846 |
| O=C(Nc1ccc(F)c(Cl)c1)c1ccc(Oc2ccnc(-c3ccc(F)cc3)n2)cc1 [Compound L662-0654] | SpCas9 eGFP disruption Rep1 | 73.611 |
| O=C(O)c1cc(NS(=O)(=O)c2cc(F)ccc2F)cnc1N1CCC(N2CCCCC2)CC1 [Compound F293-0616] | SpCas9 eGFP disruption Rep1 | 58.357 |
| Fc1ccc(-c2nn3c(-c4cnccn4)nnc3s2)cc1Br [Compound D727-0884] | SpCas9 eGFP disruption Rep1 | 63.178 |
| COc1ccc(Cc2nn3c(-c4cccnc4)nnc3s2)cc1OC [Compound D727-0069] | SpCas9 eGFP disruption Rep1 | 59.543 |
| Nc1c(C(=O)N2CCCC2)sc(=S)n1Cc1ccccc1 [Compound F128-0041] | SpCas9 eGFP disruption Rep1 | 65.885 |
| CCC(C)NC(=O)c1cccc(Oc2cc(-c3ccccc3)ncn2)c1 (centres unmarked) [Compound L663-0996] | SpCas9 eGFP disruption Rep1 | 75.44 |
| Clc1cccc(-c2nnc3sc(-c4ccc5ccccc5n4)nn23)c1 [Compound D727-0890] | SpCas9 eGFP disruption Rep1 | 62.913 |
| Cn1nc(-c2ccccc2F)c2cc(C(=O)Oc3ccc4cnccc4c3)sc21 [Compound G784-0099] | SpCas9 eGFP disruption Rep1 | 69.21 |
| Brc1cccc(-c2nn3c(-c4ccccn4)nnc3s2)c1 [Compound D727-0489] | SpCas9 eGFP disruption Rep1 | 61.183 |
| c1ccc(-c2nnc3sc(-c4ccc5c(c4)OCO5)nn23)nc1 [Compound D727-0536] | SpCas9 eGFP disruption Rep1 | 63.106 |
| Fc1ccc(-c2nn3c(-c4ccncc4)nnc3s2)cc1Br [Compound D727-0883] | SpCas9 eGFP disruption Rep1 | 63.924 |
| O=C(NCc1ccc2c(c1)OCO2)c1cccc(Oc2cc(-c3ccccc3)ncn2)c1 [Compound L663-1076] | SpCas9 eGFP disruption Rep1 | 74.045 |
| CCCCNC(=O)CN1CCN(c2ccc(C(=O)O)cc2NC(=O)c2ccccc2Cl)CC1 [Compound F086-0029] | SpCas9 eGFP disruption Rep1 | 59.751 |
| Cc1ncc(-c2ccnc(Nc3ccc(S(C)(=O)=O)cc3)n2)n1C(C)C [Compound S2621] | SpCas9 eGFP disruption Rep1 | 43.978 |
| O=C(NCC1CCCO1)c1sc(=S)n2c1[nH]c(=O)c1cc3c(cc12)OCO3 (centres unmarked) [Compound F083-0416] | SpCas9 eGFP disruption Rep1 | 59.472 |
| CCCCN(CC)C(=O)C1CCCN(c2ccc(-c3ccccc3C)nn2)C1 (centres unmarked) [Compound F305-0129] | SpCas9 eGFP disruption Rep1 | 59.262 |

All figures here come from patent US20240115557A1.
